# methodSummary: in vivo
# Design: species or system mice
# conditions: male, NOD.Cg-Rag1tm1Mom Il2rgtm1Wjl/SzJ (NRG), mouse, iv, total radioactivity, Biodistribution: Heart
Where a SMILES comes first, the peptide text is derived from it. Bridges are numbered along the chain shown (N, C = ends). [ ]: non-standard residue; d: D form. The star is where a group is joined. X1 = O=C(O)CN1CCN(CC(=O)O)CCN(CC(=O)N[C@@H](CS(=O)(=O)O)C(=O)N[C@@H](CCCCNC(=O)CCCc2ccc(I)cc2)C(=O)*)CCN(CC(=O)O)CC1; 2Nal = N[C@@H](Cc1ccc2ccccc2c1)C(=O)O; Lys(iPr) = CC(C)NCCCC[C@H](N)C(=O)O
assayReadout: tissue uptake at 3 h (%ID/g)
# unit: %ID/g | format: bare number

Requested field: tissue uptake at 3 h. Item: CC(C)NCCCC[C@H](NC(=O)[C@H]1CCC(=O)N[C@@H](CCCCNC(=O)[C@H](CCCCNC(=O)CCCc2ccc(I)cc2)NC(=O)[C@H](CS(=O)(=O)O)NC(=O)CN2CCN(CC(=O)O)CCN(CC(=O)O)CCN(CC(=O)O)CC2)C(=O)N[C@@H](Cc2ccc(O)cc2)C(=O)N[C@@H](CCCCNC(C)C)C(=O)N[C@H](CCCNC(=N)N)C(=O)N[C@@H](Cc2ccc3ccccc3c2)C(=O)N[C@H](C)C(=O)N1)C(N)=O [[^68Ga]Ga-BL34L11, metal not drawn] (K(X1)Y[Lys(iPr)][dR][2Nal][dA][dE][Lys(iPr)]-NH2; lactam N-7)
3.17
